# target_of_assay: Serine protease hepsin (Homo sapiens)
# Sequence (P05981 1-162 limits assumed): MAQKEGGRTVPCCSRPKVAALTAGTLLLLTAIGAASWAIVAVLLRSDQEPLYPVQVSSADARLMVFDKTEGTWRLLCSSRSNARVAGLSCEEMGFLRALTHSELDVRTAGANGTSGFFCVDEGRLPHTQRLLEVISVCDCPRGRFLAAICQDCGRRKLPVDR
# Sequence (P05981 163-417 limits assumed): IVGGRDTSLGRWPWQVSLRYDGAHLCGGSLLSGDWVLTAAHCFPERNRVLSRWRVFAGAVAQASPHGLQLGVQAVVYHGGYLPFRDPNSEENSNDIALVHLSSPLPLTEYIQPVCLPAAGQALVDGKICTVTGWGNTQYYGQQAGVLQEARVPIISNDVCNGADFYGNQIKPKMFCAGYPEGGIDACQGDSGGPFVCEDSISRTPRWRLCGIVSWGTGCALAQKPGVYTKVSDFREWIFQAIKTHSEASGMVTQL
# strict inequality: Ki < 2 µM yields true, everything else yields false

[
  {
    "chemical_string": "CC(C)c1cc(C(C)C)c(S(=O)(=O)N[C@@H](Cc2cccc(C(=N)N)c2)C(=O)N2CCN(C(=O)C3CCNCC3)CC2)c(C(C)C)c1",
    "classification": "false"
  },
  {
    "chemical_string": "Cc1ccc(S(=O)(=O)N[C@@H](Cc2cccc(C(=N)N)c2)C(=O)N2CCC(c3ccccc3)CC2)cc1",
    "classification": "false"
  },
  {
    "chemical_string": "Cc1ccc(S(=O)(=O)N[C@@H](Cc2cccc(C(=N)N)c2)C(=O)N2CCN(C(=O)NCCc3ccccc3)CC2)cc1",
    "classification": "true"
  },
  {
    "chemical_string": "[H]/N=C(/N)c1ccc(NCc2nc3cc(C(=O)N(CCC(=O)O)c4ccccn4)ccc3n2C)cc1",
    "classification": "true"
  },
  {
    "chemical_string": "CCCCCCNC(=O)N1CCN(C(=O)[C@H](Cc2cccc(C(=N)N)c2)NS(=O)(=O)c2ccc3ccccc3c2)CC1",
    "classification": "true"
  },
  {
    "chemical_string": "CC(C)c1cc(C(C)C)c(S(=O)(=O)N[C@@H](Cc2cccc(C(=N)N)c2)C(=O)N2CCN(C(=O)C3CCN(C(=N)N)CC3)CC2)c(C(C)C)c1",
    "classification": "true"
  }
]

###

# target_of_assay: Suppressor of tumorigenicity 14 protein (Homo sapiens, UniProt Q9Y5Y6)
# Sequence (Q9Y5Y6 whole entry): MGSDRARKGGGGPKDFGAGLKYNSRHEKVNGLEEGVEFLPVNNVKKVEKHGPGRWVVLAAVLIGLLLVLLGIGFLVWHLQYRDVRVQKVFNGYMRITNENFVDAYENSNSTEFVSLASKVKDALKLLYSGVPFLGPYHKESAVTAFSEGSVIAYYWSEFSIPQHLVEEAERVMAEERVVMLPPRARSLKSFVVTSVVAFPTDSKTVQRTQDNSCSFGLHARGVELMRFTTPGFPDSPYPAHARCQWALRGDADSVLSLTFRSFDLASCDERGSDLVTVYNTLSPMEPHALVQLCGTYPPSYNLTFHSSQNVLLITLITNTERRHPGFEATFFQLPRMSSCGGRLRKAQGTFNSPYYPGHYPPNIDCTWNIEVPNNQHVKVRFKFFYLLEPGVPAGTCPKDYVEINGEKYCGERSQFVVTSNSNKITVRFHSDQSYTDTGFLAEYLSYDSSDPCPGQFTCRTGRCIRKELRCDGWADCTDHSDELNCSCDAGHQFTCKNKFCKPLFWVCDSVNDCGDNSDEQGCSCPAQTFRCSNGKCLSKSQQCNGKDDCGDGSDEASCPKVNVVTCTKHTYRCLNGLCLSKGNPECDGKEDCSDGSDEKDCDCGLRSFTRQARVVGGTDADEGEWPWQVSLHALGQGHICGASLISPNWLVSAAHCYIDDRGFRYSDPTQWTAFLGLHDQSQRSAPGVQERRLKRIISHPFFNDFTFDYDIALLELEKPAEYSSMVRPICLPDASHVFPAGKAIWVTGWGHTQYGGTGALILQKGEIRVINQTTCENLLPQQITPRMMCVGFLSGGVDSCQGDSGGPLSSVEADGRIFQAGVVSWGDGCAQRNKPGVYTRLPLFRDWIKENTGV
property_label: log10(Ki) (log10 of the value in nM)

[
  {
    "compound": "CCc1cc(C(Nc2ccc(C(=N)N)cc2)C(=O)NS(=O)(=O)c2cn(C)cn2)cc2c(C)coc12 (racemic)",
    "property_label": "log10(Ki)",
    "reported": 3.86
  },
  {
    "compound": "CC(C)c1cc(C(C)C)c(S(=O)(=O)N[C@@H](Cc2cccc(C(=N)N)c2)C(=O)N2CCN(C(=O)C3CCN(C(=N)N)CC3)CC2)c(C(C)C)c1",
    "property_label": "log10(Ki)",
    "reported": 0.63
  },
  {
    "compound": "N=C(N)c1cccc(C[C@H](NS(=O)(=O)c2ccc3ccccc3c2)C(=O)N2CCC[C@@H](NC(=O)OCc3ccccc3)C2)c1",
    "property_label": "log10(Ki)",
    "reported": 3.83
  },
  {
    "compound": "N=C(N)c1cccc(C[C@H](NS(=O)(=O)c2ccc3ccccc3c2)C(=O)N2CCN(C(=O)c3csc4ccccc34)CC2)c1",
    "property_label": "log10(Ki)",
    "reported": 3.18
  },
  {
    "compound": "Cc1ccc(S(=O)(=O)N[C@@H](Cc2cccc(C(=N)N)c2)C(=O)N2CCN(C(=O)NCCc3ccccc3)CC2)cc1",
    "property_label": "log10(Ki)",
    "reported": 3.40
  },
  {
    "compound": "O=C(NC[C@H]1CN(c2ccc(N3CCOCC3=O)cc2)C(=O)O1)c1ccc(Cl)s1",
    "property_label": "log10(Ki)",
    "reported": 3.53
  }
]

###

# target_of_assay: Hepatocyte growth factor activator serine protease (Homo sapiens, UniProt Q04756)
# Sequence (Q04756 373-407 limits assumed): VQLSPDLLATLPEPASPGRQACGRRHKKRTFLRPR
# Sequence (Q04756 408-655 limits assumed): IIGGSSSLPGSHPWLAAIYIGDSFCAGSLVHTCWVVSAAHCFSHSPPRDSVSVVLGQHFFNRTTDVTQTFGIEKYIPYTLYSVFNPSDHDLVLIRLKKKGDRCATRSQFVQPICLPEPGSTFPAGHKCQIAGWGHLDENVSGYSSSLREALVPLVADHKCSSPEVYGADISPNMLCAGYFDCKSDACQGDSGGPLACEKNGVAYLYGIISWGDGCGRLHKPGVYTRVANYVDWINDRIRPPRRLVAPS
# experiment_description: Inhibition of recombinant N-terminal His-tagged HGFA (unknown origin) expressed in baculovirus-infected Sf9 cells using Boc-QLR-AMC as substrate incubated for 30 mins prior to substrate addition by fluorescence assay
pKi: −log10 of the molar value.

[
  {
    "compound": "CC(C)c1cc(C(C)C)c(S(=O)(=O)N[C@@H](Cc2cccc(C(=N)N)c2)C(=O)N2CCN(C(=O)C3CCN(C(=N)N)CC3)CC2)c(C(C)C)c1",
    "target_of_assay": "Hepatocyte growth factor activator serine protease (Homo sapiens, UniProt Q04756)",
    "inequality_symbol": "=",
    "pKi": 4.77
  },
  {
    "compound": "CC(C)c1cc(C(C)C)c(S(=O)(=O)N[C@@H](Cc2cccc(C(=N)N)c2)C(=O)N2CCN(C(=O)C3CCNCC3)CC2)c(C(C)C)c1",
    "target_of_assay": "Hepatocyte growth factor activator serine protease (Homo sapiens, UniProt Q04756)",
    "inequality_symbol": "=",
    "pKi": 5.26
  },
  {
    "compound": "CCc1cc(C(Nc2ccc(C(=N)N)cc2)C(=O)NS(=O)(=O)c2cn(C)cn2)cc2c(C)coc12 (racemic)",
    "target_of_assay": "Hepatocyte growth factor activator serine protease (Homo sapiens, UniProt Q04756)",
    "inequality_symbol": "=",
    "pKi": 5.15
  },
  {
    "compound": "Cc1ccc(S(=O)(=O)N[C@@H](Cc2cccc(C(=N)N)c2)C(=O)N2CCN(C(=O)NCCc3ccccc3)CC2)cc1",
    "target_of_assay": "Hepatocyte growth factor activator serine protease (Homo sapiens, UniProt Q04756)",
    "inequality_symbol": "<",
    "pKi": 4.30
  }
]
